Reported IC50 of intracellular cAMP production suppression (cAMP production inhibition rate) values for the following binders.
- Assay System: T1, human GPR7 (human, UniProt P48145 1-328)
- T1 sequence: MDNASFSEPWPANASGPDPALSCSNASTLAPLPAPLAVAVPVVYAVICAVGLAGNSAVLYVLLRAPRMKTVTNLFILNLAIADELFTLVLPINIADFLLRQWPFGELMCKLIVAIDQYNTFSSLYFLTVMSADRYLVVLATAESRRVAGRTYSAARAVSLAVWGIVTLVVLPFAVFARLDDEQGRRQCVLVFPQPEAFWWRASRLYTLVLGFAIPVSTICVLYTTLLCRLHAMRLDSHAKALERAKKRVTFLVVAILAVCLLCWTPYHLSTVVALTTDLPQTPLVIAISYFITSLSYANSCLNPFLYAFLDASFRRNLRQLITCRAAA
- Assay Method Text: cell-based or functional assay
Non-standard residues stand in square brackets, D forms with d. No end group written: not given here. Trp(6-Br) = N[C@@H](Cc1c[nH]c2cc(Br)ccc12)C(=O)O; dTrp(6-Br) = N[C@H](Cc1c[nH]c2cc(Br)ccc12)C(=O)O
Assay Endpoint: IC50 of intracellular cAMP production suppression (cAMP production inhibition rate) (nM)

Binder | Measured Result
[dTrp(6-Br)]YKPAAGHSSYSVGRAAGLLSGLRRSPYA [DTrp(6Br)1-human GPR7L(29)] | 106
WYKPAAGHSSYSVGRAAGLLSGL [Trp1-human GPR7L(23)] | 0.58
WYKPAAGSHHYSVGRAAGLLSSFH (also called rat GPR7 ligand A) [Trp1-rat GPR7L(24)] | 0.31
WYKPTAGQGYYSVGRAAGLLSGFHRSPYA (also called bovine GPR7 ligand B; non-brominated GPR7L) [Trp1-bovine GPR7L(29)] | 0.43
[Trp(6-Br)]YKPTAGQGYYSVGRAAGLLSGFHRSPYA [LTrp(6Br)1-bovine GPR7L(29)] | 0.58
[Trp(6-Br)]YKPAAGHSSYSVGRAAGLLSGLRRSPYA [LTrp(6Br)1-human GPR7L(29)] | 0.44
WYKPAAGSHHYSVGRAAGLLSSFHRFPST (also called rat GPR7 ligand B) [Trp1-rat GPR7L(29)] | 0.86
[dTrp(6-Br)]YKPTAGQGYYSVGRAAGLLSGFHRSPYA [DTrp(6Br)1-bovine GPR7L(29)] | 35
